System: OVCAR-8 ovarian
Experiment: NCI-60 one-dose screen, 48 h (100 = growth as untreated, 0 = no growth, -100 = all killed)
Conditions: 10 µM
This is part of a sample that, as a whole, favours compounds with a hit. Of some 83,000 tested, about 20% had one in any assay.
Quantity: growth (%)
Give bare numbers, in %.

>>> observed_result("CCOC(=O)CC(S(=O)(=O)c1ccccc1)S(=O)(=O)c1ccccc1")
103
>>> observed_result("COc1cc2cc(Oc3ccc(NC(=O)Nc4ccc(Cl)c(Cl)c4)cc3)c(C)nc2cc1OC")
15

For the 4 compounds below, give their growth values.
1. O=C(/C=C/C=C/c1c(C2CC2)nc2ccccc2c1-c1ccc(F)cc1)c1cccs1
2. CCn1c(SCCc2ccccc2)nnc1-c1nn(-c2ccc(Cl)cc2Cl)c(-c2ccc(Cl)cc2)c1C
3. COc1ccc(-c2onc(N)c2-c2cc(OC)c3c(c2)OCO3)cc1
4. COc1ccc(Nc2cnc3cc(NS(=O)(=O)c4ccc(C)cc4)ccc3n2)cc1

Reply |
18.1
84.5
39.3
82.1

For the 3 compounds below, give their growth values.
1. CCOS(=O)(=O)c1c(C(C)C)cc(C(C)C)cc1C(C)C
2. COc1ccc(/C=C2/SC(=S)NC2=O)c(OC)c1OC
3. CC(C)[N+]1(C)C2CC[C@@H]1CC(OC(=O)C(CO)c1ccccc1)C2 (stereo not given in full)

Reply |
1: 103; 2: 91.5; 3: 104

Ask | So what does the record say about growth for `CNS(=O)(=O)Oc1ccc(-c2ccc3occc3c2)cc1` ?
Reply | 99.5
